Listed compounds paired with reported Percent Effect
- method-summary: In vitro enzyme assay to detect hydrolysis of chlorophenol red-beta-D-[…] directly proportional to the number of Toxoplasma stably expressing beta-galactosidase
- Format: functional, organism-based, Toxoplasma gondii
- Set-up: scale not given: in the data most compounds retested in dose-response had high values
- condition-label: 50 µM
Among all 85,000 compounds or so, about 440 (0.52%) showed an effect of 50% or more. The sample as a whole holds a higher share of strong results than the screen did.
readout-type: Percent Effect (%)

[[record]]
compound = "c1nc(N2CCNCC2)c2sccc2n1"
readout_type = "Percent Effect"
experimental_value = 52.15

[[record]]
compound = "Cc1ncc(C(=O)N2C[C@@H]3CCCN[C@@H]3C2)c(C)n1"
readout_type = "Percent Effect"
experimental_value = 63.53

[[record]]
compound = "CN(CC(N)=O)C1Cc2ccccc2C1"
readout_type = "Percent Effect"
experimental_value = -5.488

[[record]]
compound = "CC(=O)N1N=C(c2cccnc2)CC1c1ccco1 (stereo not drawn)"
readout_type = "Percent Effect"
experimental_value = 88.79

[[record]]
compound = "CN1CCCN(C(=O)COc2ccc(C#N)cc2)CC1"
readout_type = "Percent Effect"
experimental_value = 10.92

[[record]]
compound = "Cc1ccc([C@@H](O)CN)cc1"
readout_type = "Percent Effect"
experimental_value = -14.41

[[record]]
compound = "CC1CN(C)CCC1=O (stereo not drawn)"
readout_type = "Percent Effect"
experimental_value = 95.15

[[record]]
compound = "CCCN1CCN(Cc2nccn2C)CC1"
readout_type = "Percent Effect"
experimental_value = 5.907

[[record]]
compound = "Cc1ncc(C(=O)N2C[C@@H]3CCCN[C@@H]3C2)cn1"
readout_type = "Percent Effect"
experimental_value = -7.245

[[record]]
compound = "NC1CCN(CC(F)F)C1 (stereo not drawn)"
readout_type = "Percent Effect"
experimental_value = -7.731

[[record]]
compound = "Clc1cnccc1CN1CCC2(CCOC2)C1 (stereo not drawn)"
readout_type = "Percent Effect"
experimental_value = 3.263

[[record]]
compound = "CC(C)N1CCN(Cc2ccc(N)nc2)CC1"
readout_type = "Percent Effect"
experimental_value = -5.951

[[record]]
compound = "Cc1cc(C(=O)N2C[C@@H]3CCCN[C@@H]3C2)cc(C)n1"
readout_type = "Percent Effect"
experimental_value = -13.26

[[record]]
compound = "Cc1cc(C(=O)N2CC[C@H]3CC[C@@H](C2)N3)nc(C)n1"
readout_type = "Percent Effect"
experimental_value = 2.124

[[record]]
compound = "CCc1nsc(N2CCNCC2)n1"
readout_type = "Percent Effect"
experimental_value = 12.31

[[record]]
compound = "CN1CCCN(C(=O)COc2ccc(Br)cc2)CC1"
readout_type = "Percent Effect"
experimental_value = 68.33

[[record]]
compound = "Cc1cnc(N2CCNCC2)s1"
readout_type = "Percent Effect"
experimental_value = 5.738

[[record]]
compound = "CNC(CCO)Cc1ccccc1 (stereo not drawn)"
readout_type = "Percent Effect"
experimental_value = -16.85

[[record]]
compound = "CC(C)(C)OC(=O)NC1CC2(CNC2)C1"
readout_type = "Percent Effect"
experimental_value = -10.31

[[record]]
compound = "O=C1CC(c2cccnc2)=NCCN1"
readout_type = "Percent Effect"
experimental_value = 42.08

[[record]]
compound = "c1cc2sccc2c(N2CCNCC2)n1"
readout_type = "Percent Effect"
experimental_value = 13.67

[[record]]
compound = "CN1CCCN(C(=O)COc2ccccc2)CC1"
readout_type = "Percent Effect"
experimental_value = -9.111

[[record]]
compound = "CC(c1nc(C(C)(C)C)no1)N1CCN(C)CC1 (stereo not drawn)"
readout_type = "Percent Effect"
experimental_value = 8.823

